# method.notes: BET inhibitor-based combinations targeting novel dependencies in MECOM-rearranged (r) AML: AML-194 cell line (AID 2202237; note: nearly all actives have a fitted effect of over 40% in size)
# experimental.parameters: AML-194 (MECOM-r AML) viability, CellTiter-Glo, 48 h; series mostly up to 46 µM
Results filed as inconclusive are left out. Active and inactive are the calls of the source. Calls come from the whole dose curve; as a rule, active = well fitted inhibition curve with a large enough effect; inconclusive = small, poorly fitted or top-dose-only effect; inactive = flat fitted curve, though single readings scatter.
Bench note: report the call from 1 (yes) (active), 0 (no) (inactive)

Task: What outcome does the record of this test show for COc1ccc(C(=O)CC2(O)C(=O)Nc3c(Cl)ccc(Cl)c32)cc1 (stereo unspecified) ?
Result: 1 (yes)

Task: # outcome recorded in this test, key = O=C(/C=C/c1ccc2ccc(C(F)(F)F)cc2n1)c1ccncc1
Result: 1 (yes)

Task: Just curious, what result did CC(=O)CC(c1ccccc1)c1c(O)c2ccccc2oc1=O (stereo unspecified) get here?
Result: 0 (no)

Task: Assay result, entry CCN(C(=O)c1ccccc1OC)c1cc2c(cc1N1CCNC[C@H]1C)n(C)c(=O)n2C — outcome?
Result: 0 (no)

Task: Check the results log: what was the call for CC1(N)CCN(c2cnc(-c3cccc(Cl)c3Cl)c(N)n2)CC1 ?
Result: 0 (no)

Task: For this compound, state the assay outcome: CC(c1cc2ccccc2s1)N(O)C(N)=O (stereo unspecified)
Result: 0 (no)

Task: I'd appreciate the recorded outcome for C=CCc1cccc(/C=N/NC(=O)CN2CCN(Cc3ccccc3)CC2)c1O from this test.
Result: 1 (yes)

Task: // return assay outcome for CC(C)C(N)C(=O)OCC(CO)OCn1cnc2c(=O)[nH]c(N)nc21 (stereo unspecified)
Result: 0 (no)

Task: Look up the recorded call for C[C@@H]1Cc2c([nH]c3ccccc23)[C@@H](c2c(F)cc(/C=C/C(=O)O)cc2F)N1CC(C)(C)F in this test.
Result: 0 (no)

Task: Assay outcome for CCN(CC)C(=S)SSC(=S)N(CC)CC : what was it?
Result: 1 (yes)

Task: Test call, this compound: COc1ccnc(CS(=O)c2nc3ccc(OC(F)F)cc3[nH]2)c1OC (stereo unspecified)
Result: 0 (no)

Origin of measurements: PubChem BioAssay (NCATS)
